- ASSAY PROCEDURE: Cytotoxicity, MTT assay
- Type: cell-based, human
- CONDITION: human, HaCat human immortalised epidermal cells, HaCat cells, MTT, 24 h
- Protocol: These six series of antimicrobial compounds may be applied to daily or clinical disinfectants for unbroken skin and trauma, or agricultural fungicides alternatively. Thus, their cytotoxicity for skin or body tissues are crucial. In this study, the cytotoxicity of target compounds was evaluated for human immortalised epidermal (HaCat) and human normal liver (LO2) cell line using MTT assay. […] The IC50 values of 5a, 6a, 10a, 16a, 16 b were about more than 50 μg/mL for LO2 and HaCat. […]
ATTRIBUTE MEASURED: IC50 at 24 h (µg/mL)
Give just the numeric value; µg/mL need not be written.

*Q* Entry C[N+](CCO)(CCO)CCCCCCCCCCCCSc1nnc(-c2ccccc2)o1 [Compound 2, reference compound] has what IC50 at 24 h?
*A* 18.3

*Q* Entry "C[N+](CCO)(CCO)CCCCCCCCCCCCSc1nnc(-c2ccc(C(F)(F)F)cc2)o1.[Br-]" has what IC50 at 24 h?
*A* 5.25

We next turn to a different molecule, shown below.
*Q* Entry "C[N+](CCO)(CCO)CCCCCCCCCCSc1nnc(-c2ccc(C(F)(F)F)cc2)o1.[Br-]" has what IC50 at 24 h?
*A* 12.1

---

Structures can show the parent of a compound that is named as a salt.
ATTRIBUTE MEASURED: melting point

*Q* Entry C[N+](CCO)(CCO)CCCCCCCCCCCCSc1nc2ccccc2s1 (as salt: bromide) [Compound 13d] has what melting point?
*A* 106 to 107 °C

*Q* Entry C[N+](CCO)(CCO)CCCCCCCCSc1nc2ccccc2o1 (as salt: bromide) [Compound 10b] has what melting point?
*A* 125 to 127 °C

*Q* Entry Cc1nnc(SCCCCCCCC[N+](C)(CCO)CCO)s1 (as salt: bromide) [Compound 16b] has what melting point?
*A* 74 to 75 °C

We next turn to a different compound, shown below.
*Q* Entry "C[N+](CCO)(CCO)CCCCCCCCCCCCSc1nnc(-c2ccc(C(F)(F)F)cc2)o1.[Br-]" has what melting point?
*A* 88 to 90 °C

---

- Test system: Canidia albicans
- ASSAY PROCEDURE: MBC, agar plating of dilutions without growth
- Type: cell-based
- CONDITION: 99.9% bactericidal, read-out: Minimal bactericidal concentration (MBC)
In this section we review reported MBC values for a set of compounds.
Quick note: number first, unit second.

*Q* Entry C[N+](CCO)(CCO)CCCCCCSc1nnc(-c2ccc(C(F)(F)F)cc2)o1 [Compound 6a] has what MBC?
*A* 50 µg/mL

*Q* Entry C[N+](CCO)(CCO)CCCCCCCCSc1nnc(-c2ccc(C(F)(F)F)cc2)o1 [Compound 6b] has what MBC?
*A* 25 µg/mL

*Q* Entry C[N+](CCO)(CCO)CCCCCCCCCCCCSc1nc2ccccc2s1 [Compound 13d] has what MBC?
*A* 6.25 µg/mL

*Q* Entry [H]/N=C(\N/C(=N/[H])NCCCCCCNC(=N)NC(=N)Nc1ccc(Cl)cc1)Nc1ccc(Cl)cc1 [CA, chlorhexidine acetate, reference compound] has what MBC?
*A* 12.5 µg/mL

*Q* Entry C[N+](CCO)(CCO)CCCCCCCCCCSc1nnc(-c2ccc(C(F)(F)F)cc2)o1.[Br-] [Compound 6c] has what MBC?
*A* 25 µg/mL

*Q* Entry C[N+](CCO)(CCO)CCCCCCCCCCSc1nnc(-c2ccc(F)cc2)o1 [Compound 5c] has what MBC?
*A* 25 µg/mL
